Source of measurements: patent US20240327535A1

Biological target: T1, extracellular domain of human BCMA (human, UniProt Q02223 1-54)
T1 construct: amine-linked to Octet AR2G tips; also called hsBCMA; BCMA (human)
T1 sequence: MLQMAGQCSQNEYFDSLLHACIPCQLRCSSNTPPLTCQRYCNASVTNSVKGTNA
Assay: Octet BLI; Fab 200 nM
Criterion: Kd strictly under 2 nM. Met: Met. Not met: Not met.

Incoming: Is the reported Kd for AB200-R1H26-R2Vk38 (Fab, V domains shown) VH: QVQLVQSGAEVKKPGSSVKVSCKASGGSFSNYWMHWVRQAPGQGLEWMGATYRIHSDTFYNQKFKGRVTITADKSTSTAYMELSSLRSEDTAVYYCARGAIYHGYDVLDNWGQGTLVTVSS VL: DIQMTQSPSSLSASVGDRVTITCRASQSISSYINWYQQKPGKAPKLLIYATSNLQSGVPSRFSGSGSGTDFTLTISSLQPEDFATYYCQQFRKIPWTFGQGTKLEIKR strictly below 2 nM?
Outgoing: Not met

Incoming: Is the reported Kd for AB200-R1H26-R2Vk16 (Fab, V domains shown) VH: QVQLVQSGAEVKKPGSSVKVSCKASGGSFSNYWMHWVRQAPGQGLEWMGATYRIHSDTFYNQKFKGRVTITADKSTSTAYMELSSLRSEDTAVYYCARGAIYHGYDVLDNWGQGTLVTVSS VL: DIQMTQSPSSLSASVGDRVTITCRASQSISSYINWYQQKPGKAPKLLIYAASSLQSGVPSRFSGSGSGTDFTLTISSLQPEDFATYYCQQFRRLPWTFGQGTKLEIKR strictly below 2 nM?
Outgoing: Not met

Incoming: Is the reported Kd for AB200-R1H26-R2Vk47 (Fab, V domains shown) VH: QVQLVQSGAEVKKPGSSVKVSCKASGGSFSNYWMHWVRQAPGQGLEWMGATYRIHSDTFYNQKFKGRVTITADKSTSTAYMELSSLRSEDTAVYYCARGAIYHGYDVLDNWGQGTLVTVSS VL: DIQMTQSPSSLSASVGDRVTITCRASQSISSYINWYQQKPGKAPKLLIYATSNLQIGVPSRFSGSGSGTDFTLTISSLQPEDFATYYCQQYRKIPWSFGQGTKLEIKR strictly below 2 nM?
Outgoing: Met

Incoming: Is the reported Kd for AB200-R1H26-R2Vk46 (Fab, V domains shown) VH: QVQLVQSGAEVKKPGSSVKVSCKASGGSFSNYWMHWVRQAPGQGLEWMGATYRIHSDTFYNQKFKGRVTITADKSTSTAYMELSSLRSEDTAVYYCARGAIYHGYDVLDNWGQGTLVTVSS VL: DIQMTQSPSSLSASVGDRVTITCRASQSISSYINWYQQKPGKAPKLLIYATSNLQIGVPSRFSGSGSGTDFTLTISSLQPEDFATYYCQQFRRLPWTFGQGTKLEIKR strictly below 2 nM?
Outgoing: Met

Incoming: Is the reported Kd for AB200-R1H26-R2Vk26 (Fab, V domains shown) VH: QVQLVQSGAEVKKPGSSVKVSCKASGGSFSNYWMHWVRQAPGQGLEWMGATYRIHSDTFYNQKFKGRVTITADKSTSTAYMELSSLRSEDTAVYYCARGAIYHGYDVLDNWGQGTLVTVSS VL: DIQMTQSPSSLSASVGDRVTITCRASQSISSYLNWYQQKPGKAPKLLIYATSNIQSGVPSRFSGSGSGTDFTLTISSLQPEDFATYYCQQFRRLPWTFGQGTKLEIKR strictly below 2 nM?
Outgoing: Met
